system: OVCAR-8; experiment: NCI tumour cell line growth inhibition, 48 h
Calls of active or inactive are those of the source. Rule as the data show it: active = GI50 up to about 1.1 µM and inactive = higher.
Please state which outcome applies, choosing from YES for active, NO for inactive

Consider the worked cases shown below.
COMPOUND: COc1ccc(Nc2nc(C#N)c(N)s2)cc1
SYSTEM_TESTED: OVCAR-8
DISCRETE_LABEL: NO

COMPOUND: COc1ccc(CC(C#N)c2cc(OC)c(OC)c(OC)c2)cc1 (stereo not drawn)
SYSTEM_TESTED: OVCAR-8
DISCRETE_LABEL: YES

Exercise: Called result for CCOC(=O)C1C(=O)C=C(c2cc(C)ccc2O)CC1c1cccc(Cl)c1 (stereo not drawn)
Key: NO

Reference source for all entries: ChEMBL document CHEMBL1201862
